Hey, just so you know, these numbers are from patent US5798361A.

# experimental-target: 5HT2 receptors (Mus musculus)
# Construct: Male N.M.R.I. mice weighing 22-26 g were used; from tissue; host or cells: living male N.M.R.I. mice (whole animal, endogenous receptor)
# Sequence (P35363 whole entry): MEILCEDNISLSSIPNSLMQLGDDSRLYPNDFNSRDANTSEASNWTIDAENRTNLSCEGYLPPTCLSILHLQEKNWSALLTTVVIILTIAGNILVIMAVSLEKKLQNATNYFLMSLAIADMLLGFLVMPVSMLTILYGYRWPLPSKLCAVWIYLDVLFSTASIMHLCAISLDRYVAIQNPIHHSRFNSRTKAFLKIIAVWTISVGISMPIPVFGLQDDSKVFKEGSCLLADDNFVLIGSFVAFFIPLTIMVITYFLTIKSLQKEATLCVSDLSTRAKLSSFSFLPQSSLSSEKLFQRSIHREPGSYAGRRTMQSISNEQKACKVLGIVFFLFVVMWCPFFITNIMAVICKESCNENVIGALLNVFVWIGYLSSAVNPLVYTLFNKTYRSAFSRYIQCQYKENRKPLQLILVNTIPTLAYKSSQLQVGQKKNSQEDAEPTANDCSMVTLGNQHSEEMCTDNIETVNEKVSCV
# test: Inhibition of DOI-induced head twitches and scratches
# Format: in vivo, Male N.M.R.I. mice
# test-parameters: p.o., mice, DOI 3 mg/kg i.p. at 60 min
endpoint: ED50 DOI (mg/kg)
I only need the number, in mg/kg, no unit after it.

Problem: Tell me ED50 DOI reported for `Cc1ccc(-c2csc3nc(C)c(CCN4CCC(c5noc6cc(F)ccc56)CC4)c(=O)n23)cc1`
Solution: 0.57

Problem: Tell me ED50 DOI reported for `Cc1nc2scc(-c3ccc4c(c3)OCO4)n2c(=O)c1CCN1CCC(c2noc3cc(F)ccc23)CC1`
Solution: 0.80

Problem: Tell me ED50 DOI reported for `Cc1nc2scc(-c3ccc(F)cc3)n2c(=O)c1CCN1CCC(c2noc3cc(F)ccc23)CC1`
Solution: 0.28

Problem: Tell me ED50 DOI reported for `COc1ccc(-c2csc3nc(C)c(CCN4CCC(c5noc6cc(F)ccc56)CC4)c(=O)n23)cc1`
Solution: 0.84

Problem: Tell me ED50 DOI reported for `COc1ccc(-c2csc3nc(C)c(CCN4CCC(C(=O)c5ccc(F)cc5)CC4)c(=O)n23)cc1`
Solution: 0.60

Problem: Tell me ED50 DOI reported for `Cc1nc2scc(-c3ccccc3)n2c(=O)c1CCN1CCC(C(=O)c2ccc(F)cc2)CC1`
Solution: 1.20

Problem: Tell me ED50 DOI reported for `Cc1nc2scc(-c3ccc(Cl)cc3)n2c(=O)c1CCN1CCC(c2noc3cc(F)ccc23)CC1`
Solution: 0.82

Problem: Tell me ED50 DOI reported for `Cc1nc2scc(-c3ccccc3F)n2c(=O)c1CCN1CCC(c2noc3cc(F)ccc23)CC1`
Solution: 0.42

Problem: Tell me ED50 DOI reported for `Cc1nc2scc(-c3ccccc3Cl)n2c(=O)c1CCN1CCC(c2noc3cc(F)ccc23)CC1`
Solution: 1.50

Problem: Tell me ED50 DOI reported for `Cc1nc2scc(-c3ccccc3)n2c(=O)c1CCN1CCC(c2noc3cc(F)ccc23)CC1`
Solution: 0.58

Problem: Tell me ED50 DOI reported for `COc1cccc(-c2csc3nc(C)c(CCN4CCC(c5noc6cc(F)ccc56)CC4)c(=O)n23)c1`
Solution: 1.10

---

# experimental-target: D2 receptors (Rattus norvegicus)
# Construct: membrane corresponding to 20 mg of rat striatum; from tissue; host or cells: rat striatum membrane
# Sequence (P61169 whole entry): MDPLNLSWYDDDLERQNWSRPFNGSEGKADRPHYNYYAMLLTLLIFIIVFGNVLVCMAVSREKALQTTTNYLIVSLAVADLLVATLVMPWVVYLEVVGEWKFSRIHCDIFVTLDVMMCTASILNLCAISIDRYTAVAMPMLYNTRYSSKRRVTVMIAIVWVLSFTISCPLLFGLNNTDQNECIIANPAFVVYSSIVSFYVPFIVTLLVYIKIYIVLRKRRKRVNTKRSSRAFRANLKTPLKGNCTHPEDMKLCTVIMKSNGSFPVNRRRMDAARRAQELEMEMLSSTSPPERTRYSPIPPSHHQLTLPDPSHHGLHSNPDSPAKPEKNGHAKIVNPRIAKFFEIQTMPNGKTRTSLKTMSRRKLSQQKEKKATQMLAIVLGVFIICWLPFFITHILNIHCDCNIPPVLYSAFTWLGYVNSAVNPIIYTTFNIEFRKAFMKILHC
# test: Specific binding to D2 receptors ([3H]spiperone, rat striatum membrane)
# test-parameters: ratio of IC50 values, D2 over 5HT2
endpoint: D2/5HT2 ratio
No unit in the answer, only the number.

Problem: Tell me D2/5HT2 ratio reported for `COc1cccc(-c2csc3nc(C)c(CCN4CCC(c5noc6cc(F)ccc56)CC4)c(=O)n23)c1`
Solution: 3.8

Problem: Tell me D2/5HT2 ratio reported for `Cc1nc2scc(-c3ccccc3Cl)n2c(=O)c1CCN1CCC(c2noc3cc(F)ccc23)CC1`
Solution: 1.0

Problem: Tell me D2/5HT2 ratio reported for `Cc1nc2scc(-c3ccccc3)n2c(=O)c1CCN1CCC(C(=O)c2ccc(F)cc2)CC1`
Solution: 13.9

Problem: Tell me D2/5HT2 ratio reported for `Cc1nc2scc(-c3ccccc3)n2c(=O)c1CCN1CCC(c2noc3cc(F)ccc23)CC1`
Solution: 11.2

Problem: Tell me D2/5HT2 ratio reported for `Cc1nc2scc(-c3ccc(Cl)cc3)n2c(=O)c1CCN1CCC(c2noc3cc(F)ccc23)CC1`
Solution: 3.9

Problem: Tell me D2/5HT2 ratio reported for `Cc1nc2scc(-c3cccc(C(F)(F)F)c3)n2c(=O)c1CCN1CCC(c2noc3cc(F)ccc23)CC1`
Solution: 0.3

Problem: Tell me D2/5HT2 ratio reported for `Cc1ccc(-c2csc3nc(C)c(CCN4CCC(c5noc6cc(F)ccc56)CC4)c(=O)n23)cc1`
Solution: 2.4

Problem: Tell me D2/5HT2 ratio reported for `Cc1cccc(-c2csc3nc(C)c(CCN4CCC(c5noc6cc(F)ccc56)CC4)c(=O)n23)c1`
Solution: 0.7

Problem: Tell me D2/5HT2 ratio reported for `COc1ccc(-c2csc3nc(C)c(CCN4CCC(C(=O)c5ccc(F)cc5)CC4)c(=O)n23)cc1`
Solution: 9.7

Problem: Tell me D2/5HT2 ratio reported for `Cc1nc2scc(-c3ccc(Cl)c(Cl)c3)n2c(=O)c1CCN1CCC(c2noc3cc(F)ccc23)CC1`
Solution: 0.6

Problem: Tell me D2/5HT2 ratio reported for `COc1ccc(-c2csc3nc(C)c(CCN4CCC(c5noc6cc(F)ccc56)CC4)c(=O)n23)cc1`
Solution: 5.1

Problem: Tell me D2/5HT2 ratio reported for `Cc1nc2scc(-c3cccc(Cl)c3)n2c(=O)c1CCN1CCC(c2noc3cc(F)ccc23)CC1`
Solution: 0.7

Problem: Tell me D2/5HT2 ratio reported for `Cc1nc2scc(-c3ccc(F)cc3)n2c(=O)c1CCN1CCC(c2noc3cc(F)ccc23)CC1`
Solution: 6.2

Problem: Tell me D2/5HT2 ratio reported for `Cc1nc2scc(-c3ccccc3F)n2c(=O)c1CCN1CCC(c2noc3cc(F)ccc23)CC1`
Solution: 23.4

Problem: Tell me D2/5HT2 ratio reported for `Cc1nc2scc(-c3ccc4c(c3)OCO4)n2c(=O)c1CCN1CCC(c2noc3cc(F)ccc23)CC1`
Solution: 2.3
